# subject_of_test: GR-LBD (Homo sapiens, UniProt P04150)
# Sequence (P04150 524-758 limits assumed): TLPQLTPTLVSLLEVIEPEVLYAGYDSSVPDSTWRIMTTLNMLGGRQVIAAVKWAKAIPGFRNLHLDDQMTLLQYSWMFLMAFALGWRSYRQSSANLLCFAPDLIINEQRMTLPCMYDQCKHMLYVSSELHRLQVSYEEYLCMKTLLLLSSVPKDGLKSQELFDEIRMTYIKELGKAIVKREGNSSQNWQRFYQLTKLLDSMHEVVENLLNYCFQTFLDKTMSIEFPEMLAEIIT
# test_description: hGR CoActivator Recruitment Assay (LanthaScreen TR-Fret GR Coactivator Assay)
# condition_details: Fluorescein-SRC1-4 recruitment to GR-LBD, 10-point dilution, top concentration 200 nM, positive control 4 μM dexamethasone
quantity_kind: EC50
Kindly report the value followed by its unit.

• COc1ccc(CCc2ccc(N)cc2)c(F)c1[C@H]1O[C@@H]2C[C@H]3[C@@H]4CCC5=CC(=O)C=C[C@]5(C)[C@H]4[C@@H](O)C[C@]3(C)[C@]2(C(=O)CO)O1 = 1.65 nM

INPUT: Report EC50, nothing else, for this compound: [2H]C([2H])([2H])Oc1ccc(OCc2cccc(N)c2)c(F)c1[C@H]1O[C@@H]2C[C@H]3[C@@H]4CCC5=CC(=O)C=C[C@]5(C)[C@H]4[C@@H](O)C[C@]3(C)[C@]2(C(=O)CO)O1
OUTPUT: 1.93 nM

---

# subject_of_test: GR-LBD (Homo sapiens)
# test_description: hGR CoActivator Recruitment Assay (LanthaScreen TR-Fret GR Coactivator Assay)
# condition_details: Fluorescein-SRC1-4 recruitment to GR-LBD, 10-point dilution, top concentration 200 nM, positive control 4 μM dexamethasone
Entries and their EC50
State the value with its unit after it.

Recorded results for 2 molecules are shown here.
• CCc1ccc(OCc2cccc(N)c2)c(F)c1[C@H]1O[C@@H]2C[C@H]3[C@@H]4CCC5=CC(=O)C=C[C@]5(C)[C@H]4[C@@H](O)C[C@]3(C)[C@]2(C(=O)CO)O1 = 1.52 nM
• COc1ccc(OCCc2ccc(N)cc2)c(F)c1[C@H]1O[C@@H]2C[C@H]3[C@@H]4CCC5=CC(=O)C=C[C@]5(C)[C@H]4[C@@H](O)C[C@]3(C)[C@]2(C(=O)CO)O1 = 1.48 nM

INPUT: Report EC50, nothing else, for this molecule: COc1ccc(OCCc2cccc(N)c2)c(F)c1[C@H]1O[C@@H]2C[C@H]3[C@@H]4CCC5=CC(=O)C=C[C@]5(C)[C@H]4[C@@H](O)C[C@]3(C)[C@]2(C(=O)CO)O1
OUTPUT: 2.25 nM
